Test system: RXF 393
procedure_summary: NCI tumour cell line growth inhibition, 48 h
Activity calls are given as the source filed them. Rule as the data show it: active = GI50 up to about 1.1 µM and inactive = higher.
Please state which outcome applies, choosing from Yes = active, No = inactive

### Prompt What did this assay record as the result for C[Si](C)(C)OC1CC(=O)OC1n1cc(F)c(=O)[nH]c1=O (stereo not given) ?
### Response No

Next:
### Prompt What did this assay record as the result for CCC(CO)Nc1nc(NCc2ccccc2)c2ncn(C(C)C)c2n1 (stereo not drawn) [(RS)-ROSCOVITINE] ?
### Response No

----------
Test system: SW-620
procedure_summary: NCI tumour cell line growth inhibition, 48 h
Active and inactive are the calls of the source. No stated cut-off is given here; in the data, active = GI50 up to about 1.1 µM and inactive = higher.
Please state which outcome applies, choosing from t = active, f = inactive

The following compounds have reported results that may help.
### Prompt What did this assay record as the result for Cc1[nH]c2ccccc2c1C1CC(=O)NC1=O (centres undefined) ?
### Response f

### Prompt What do you get for O=C(/C=C/c1ccccc1)OCC1=C[C@@H](O)[C@@H]2C=CO[C@@H](OC3OC(CO)C(O)C(O)C3O)[C@H]12 (some centres undefined) ?
### Response f

### Prompt What do you get for CC(C)(C)OC(=O)N1C(C2=COc3ccccc3O2)=COc2ccccc21 ?
### Response f

### Prompt What do you get for COc1ccc(-c2cc(-c3ccco3)c(C#N)c(=S)n2C2OC(CO)C(O)C(O)C2O)cc1 (centres undefined) ?
### Response f

### Prompt What do you get for S=C1Cc2c(-c3ccc(Cl)cc3)cc(-c3ccccc3)nc2-c2ccccc2N1 ?
### Response f

### Prompt What do you get for O=C1CC[C@@]2(O)[C@H]3Cc4ccc(-c5ccccc5)c5c4[C@@]2(CCN3CC2CC2)[C@H]1O5 ?
### Response f

### Prompt What do you get for N[C@H](C(=O)O)[C@@H]1CC(Cl)=NO1 ?
### Response t

### Prompt What do you get for OC[C@H]1O[C@@H](n2cnc3cncnc32)[C@H](O)[C@@H]1O ?
### Response t

Next:
### Prompt What did this assay record as the result for CN(C)CCCN1C(=S)N(CCCN(C)C)c2c3ccccc3nc3c([N+](=O)[O-])ccc1c23 ?
### Response f
